What pIC50 was measured for each of the following?
Target: B2 bradykinin receptor (Homo sapiens, UniProt P30411)
Sequence (P30411 whole entry): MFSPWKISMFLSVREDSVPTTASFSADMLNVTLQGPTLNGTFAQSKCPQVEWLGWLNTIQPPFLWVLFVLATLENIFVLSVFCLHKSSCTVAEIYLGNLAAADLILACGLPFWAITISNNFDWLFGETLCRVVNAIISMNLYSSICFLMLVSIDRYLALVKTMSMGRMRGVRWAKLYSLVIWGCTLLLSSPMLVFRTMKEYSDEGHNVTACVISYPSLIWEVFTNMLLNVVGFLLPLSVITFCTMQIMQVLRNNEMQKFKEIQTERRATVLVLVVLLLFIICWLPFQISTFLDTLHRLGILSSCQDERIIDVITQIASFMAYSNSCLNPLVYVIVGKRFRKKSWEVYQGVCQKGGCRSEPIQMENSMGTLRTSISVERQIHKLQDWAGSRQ
Test: Concentration required to inhibit specific binding of [3H]BK at 1.2 nM to A-431 cells (human epidermoid carcinoma) which express Bradykinin receptor B2 by 50%.
API: returns pIC50 as number; meaning -log10 of concentration in mol/L.

Noted for `Cc1nc2c(OCc3c(Cl)ccc(N(C)C(=O)CNC(=O)CN(C)C)c3Cl)cccn2c1Br` : its pIC50 reads 6.08

Just so you know, measured pIC50 for `Cc1nc2c(OCc3c(Cl)ccc(N(C)C(=O)CNC(=O)CCc4ccccc4)c3Cl)cccn2c1Br` came out at 6.46

// pIC50 lookup, compound = `CNC(=O)Nc1ccc(/C=C/C(=O)NCC(=O)N(C)c2ccc(Cl)c(COc3cccn4c(Br)c(C)nc34)c2Cl)cc1.Cl` , result: 8.59

pIC50 reading for `Cc1ccc(NC(=O)NCC(=O)N(C)c2ccc(Cl)c(COc3cccn4c(Br)c(C)nc34)c2Cl)cc1.Cl` : 6.59

response.value for `Cc1nc2c(OCc3c(Cl)ccc(N(C)C(=O)CNC(=O)NC(=O)c4ccccc4)c3Cl)cccn2c1Br` (field: pIC50) = 6.29

Noted for `Cc1nc2c(OCc3c(Cl)ccc(N(C)C(=O)CNC(=O)COc4ccccc4)c3Cl)cccn2c1Br` : its pIC50 reads 6.29

Recorded result, `Cc1nc2c(OCc3c(Cl)ccc(N(C)C(=O)CNC(=O)Cc4ccccc4)c3Cl)cccn2c1Br.Cl` , pIC50: 6.17

// pIC50 value for `CC(=O)N(C)c1ccc(/C=C/C(=O)NCC(=O)N(C)c2ccc(Cl)c(COc3cccn4c(Br)c(C)nc34)c2Cl)cc1.Cl` : 7.80

###

Provide the recorded IC50 for the entries that follow.
Target: B2 bradykinin receptor (Cavia porcellus, UniProt O70526)
Sequence (O70526 whole entry): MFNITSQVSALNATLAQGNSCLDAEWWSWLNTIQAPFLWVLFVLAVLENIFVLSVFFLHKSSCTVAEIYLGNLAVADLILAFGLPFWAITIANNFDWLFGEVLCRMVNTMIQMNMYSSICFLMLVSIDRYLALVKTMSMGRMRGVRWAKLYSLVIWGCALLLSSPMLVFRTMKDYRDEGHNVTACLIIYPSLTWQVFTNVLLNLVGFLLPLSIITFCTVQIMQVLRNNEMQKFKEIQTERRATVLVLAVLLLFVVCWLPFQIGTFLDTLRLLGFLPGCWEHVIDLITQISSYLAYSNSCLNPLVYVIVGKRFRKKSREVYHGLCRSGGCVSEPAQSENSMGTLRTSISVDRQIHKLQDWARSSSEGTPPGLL
Test: Concentration required to inhibit specific binding of [3H]BK at 0.06 nM to Bradykinin receptor B2 in guinea pig ileum membrane preparations by 50%.
Dear colleague, please return just the value in nM, with no unit written.

Item: `Cc1nc2c(OCc3c(Cl)ccc(N(C)C(=O)CNC(=O)/C=C\c4ccccc4)c3Cl)cccn2c1Br` | IC50: 0.78

Lab note: `Cc1nc2c(OCc3c(Cl)ccc(N(C)C(=O)CNC(=O)Nc4cccc(C(=O)N(C)C)c4)c3Cl)cccn2c1Br.Cl` gave IC50 of 0.76

Lab note: measured IC50 of `Cc1nc2c(OCc3c(Cl)ccc(N(C)C(=O)CNC(=O)Cc4ccccc4)c3Cl)cccn2c1Br.Cl` was 5.3

// IC50 lookup, molecule = `Cc1nc2c(OCc3c(Cl)ccc(N(C)C(=O)CNC(=O)/C=C/c4ccc(C(=O)N(C)C)cc4)c3Cl)cccn2c1Br.Cl` , result: 0.66

IC50 reported for this molecule `Cc1nc2c(OCc3c(Cl)ccc(N(C)C(=O)CNC(=O)NC(=O)c4ccccc4)c3Cl)cccn2c1Br` : 340

// field: IC50; key: `Cc1ccccc1NC(=O)NCC(=O)N(C)c1ccc(Cl)c(COc2cccn3c(Br)c(C)nc23)c1Cl` ; value = 83

Looking up `Cc1nc2c(OCc3c(Cl)ccc(N(C)C(=O)CNC(=O)CCc4ccccc4)c3Cl)cccn2c1Br` , I found its IC50 recorded as 1.4

The molecule listed as `CNC(=O)c1ccc(/C=C/C(=O)NCC(=O)N(C)c2ccc(Cl)c(COc3cccn4c(Br)c(C)nc34)c2Cl)cn1.Cl.Cl` has a reported IC50 of 0.36
